Test system: HCV pseudoparticles, genotype 1a HCV E1 and E2 envelope (H77C isolate)
Experiment: HCV pseudoparticle infection assay (luciferase reporter, Huh7 cells)
Format: cell-based, HCV genotype 1a (H77C)
Details: Hepatitis C virus, Huh-7, 48 h, read-out: EC50 (nM) 1a (H77C), HCV pseudoparticle entry into Huh7 cells, luciferase measured 2 days after infection, average of duplicates
Label True when EC50 is strictly below 5 nM; at or above that, label False.

- COMPOUND: "C[C@@H]1COc2ccc(cc2)CNc2nc(nc(OCC(F)(F)F)n2)Nc2ccc(cc2)C(=O)N2CC3CCN(CC3C2)C1 (stereo partly shown)"
  CLASSIFICATION: "False"
- COMPOUND: "O=C1c2ccc(cc2)Nc2nc(nc(OCC(F)(F)F)n2)NCc2ccc(cc2)OCCCN2CCCNCCCN1CCC2"
  CLASSIFICATION: "False"
- COMPOUND: "CC1(C)CNC(=O)C(=O)Nc2ccc(cc2)OCCOc2ccc(cc2)CNc2nc(nc(OCC(F)(F)F)n2)Nc2ccc(cc2)C(=O)NC1"
  CLASSIFICATION: "False"
- COMPOUND: "C=C1COc2ccc(cc2)CNc2nc(nc(OCC(F)(F)F)n2)Nc2ccc(cc2)C(=O)N2CC3(CN(C1)C3)C2"
  CLASSIFICATION: "True"
- COMPOUND: "O=C1c2ccc(cc2)Nc2nc(nc(OCC(F)(F)F)n2)NCc2ccc(cc2)OCCCN2CCC3(CCN1C3)C2 (stereo not shown)"
  CLASSIFICATION: "False"
- COMPOUND: "CC1(C)CNCC2(COC2)COc2ccc(cc2)CNc2nc(nc(OCC(F)(F)F)n2)Nc2ccc(cc2)C(=O)NC1"
  CLASSIFICATION: "True"
- COMPOUND: "C[C@@H]1COc2ccc(cc2)CNc2nc(nc(OCC(F)(F)F)n2)Nc2ccc(cc2)C(=O)N2CC3(C)CN(C1)CC(C)(C2)C3=O"
  CLASSIFICATION: "False"

Values were extracted from patent US9624245B2.
